# Tested on: Plasmodium falciparum
# Method Summary: Calibr Malaria Delayed Death Assay SOP
# Format: functional, organism-based
# Design: scale not given: in the data most compounds retested in dose-response had high values
# Experimental Context: concentration 4.99e-06 (unit not given; other assays of the set use mol/L)
Out of some 38,000 compounds screened, about 1,200 (3.2%) showed an effect of 50% or more. The median lay at about -58%. Only a selection was taken, and strong results are over-represented in it overall.
Experimental Endpoint: Percent Effect
Reply with the number, then its unit.

Examples from the recorded data:
>  <Compound>
CN(C)C1CCN(C(=O)c2ccnn2-c2ccc3ccccn23)CC1.O=C(O)C(F)(F)F

>  <Tested System>
Plasmodium falciparum

>  <Value Observed>
-10.05%

$$$$
>  <Compound>
Cc1cc(C(=O)Nc2cccn(Cc3ccc(F)cc3)c2=O)on1

>  <Tested System>
Plasmodium falciparum

>  <Value Observed>
-10.66%

$$$$
>  <Compound>
Cc1nc(NCCC23CCCN2CCC3)cc(C2CCCNC2)n1 (stereo not drawn)

>  <Tested System>
Plasmodium falciparum

>  <Value Observed>
-30.47%

$$$$
>  <Compound>
Cc1nc(CN(C)C2CCN(Cc3nc4c(F)cccc4[nH]3)C2)no1 (stereo not drawn)

>  <Tested System>
Plasmodium falciparum

>  <Value Observed>
-2.567%

$$$$
>  <Compound>
CCc1n[nH]c(C2CN(C(=O)CCCn3cccn3)CCO2)n1 (stereo not drawn)

>  <Tested System>
Plasmodium falciparum

>  <Value Observed>
-94.04%

$$$$
>  <Compound>
O=C(CCC(=O)NCc1cccc(Br)c1)NCCN1CCCC1

>  <Tested System>
Plasmodium falciparum

>  <Value Observed>
-111.7%

$$$$
>  <Compound>
CC(C)N(CC1CCCN(CC(N)=O)C1)C(=O)OC(C)(C)C (stereo not drawn)

>  <Tested System>
Plasmodium falciparum

>  <Value Observed>
-15.39%

$$$$
>  <Compound>
CC1(C)CN(CCC(=O)NCc2cccc(Cl)c2)CC[C@]1(C)O

>  <Tested System>
Plasmodium falciparum

>  <Value Observed>
51.99%

$$$$
>  <Compound>
Cc1ccc(-c2cn3c(n2)CO[C@@H](CNCc2cnn(C)c2)C3)cc1

>  <Tested System>
Plasmodium falciparum

>  <Value Observed>
-51.89%

$$$$
>  <Compound>
CCc1ccc2nc(C)cc(C(=O)N[C@@H]3CNC[C@H]3O)c2c1

>  <Tested System>
Plasmodium falciparum

>  <Value Observed>
-23.23%

$$$$

query: Consider the compound COc1ccc(CCNCc2ccco2)cc1OC . State its measured Percent Effect.
result: 3.158%

query: Consider the compound COc1cccc(CN2CC[C@H](c3nnc(C)o3)C2)c1 . State its measured Percent Effect.
result: -103.2%

query: Consider the compound CCN(CC)C(=O)CSc1nc2c(cnn2CCO)c(=O)[nH]1 . State its measured Percent Effect.
result: -60.63%

----------
// values below are reported Percent Effect
# Tested on: Plasmodium falciparum
# Method Summary: Calibr Malaria Delayed Death Assay SOP
# Type: functional, organism-based
# Design: scale not given: in the data most compounds retested in dose-response had high values
# Experimental Context: concentration 4.99e-06 (unit not given; other assays of the set use mol/L)
The campaign covered roughly 38,000 compounds. About 1,200 (3.2%) showed an effect of 50% or more. The median lay at about -58%. This excerpt belongs to a sample that is enriched for strong results.
Report as a plain number; the unit % is understood.

Examples from the recorded data:
>  <Compound>
Cc1cccc(-c2nc(N)nc3c2CN(C(=O)c2ccncn2)C3C)c1 (configuration not stated)

>  <Tested System>
Plasmodium falciparum

>  <Percent Effect, %>
-72.66

$$$$
>  <Compound>
O=C1CC2(CCN(CC3CC3)CC2)CN1Cc1cc(F)cc(F)c1

>  <Tested System>
Plasmodium falciparum

>  <Percent Effect, %>
9.433

$$$$
>  <Compound>
CNS(=O)(=O)c1cccc(C(C)NCc2cccc(C)c2C)c1 (configuration not stated)

>  <Tested System>
Plasmodium falciparum

>  <Percent Effect, %>
68.88

$$$$

query: Consider the compound COCCN(C)C[C@@H]1CCC[C@@H]2CN(Cc3ccc(OC)nc3)C[C@@H]21.O=C(O)C(F)(F)F.O=C(O)C(F)(F)F . State its measured Percent Effect.
result: 78.92

query: Consider the compound CC(O)CN1CCC(CNCc2ccc(S(C)(=O)=O)cc2)CC1 (configuration not stated) . State its measured Percent Effect.
result: -36.2

query: Consider the compound O=C(C[C@@H]1COC[C@H]2CN(Cc3cccnc3)C[C@@H]12)N1CCOCC1.O=C(O)C(F)(F)F.O=C(O)C(F)(F)F . State its measured Percent Effect.
result: -46.72

----------
# System: Plasmodium falciparum
# Method Summary: Calibr Malaria Delayed Death Assay SOP
# Assay type: functional, organism-based
# Parameters: scale not given: in the data most compounds retested in dose-response had high values
# Experimental Context: concentration 4.99e-06 (unit not given; other assays of the set use mol/L)
Among all 38,000 compounds or so, about 1,200 (3.2%) showed an effect of 50% or more. The median lay at about -58%. For the sample, strong results were picked, then their nearest neighbours and some compounds at random.
Experimental Endpoint: Percent Effect (%)
Report as a plain number; the unit % is understood.

>  <Compound>
CCn1nc(C)c2ccn(CC(=O)NCC3CCCO3)c(=O)c21 (centres undefined)

>  <Units>
%

>  <Value Observed>
-59.75

$$$$

query: Consider the compound CO[C@H]1CNC[C@@H]1NC(=O)c1cc(C)nc2c(C)cc(C)cc12 . State its measured Percent Effect.
result: 73.93

query: Consider the compound CN(C)c1cc(C(=O)NCC2(c3ccc(F)cc3)CC2)ccn1 . State its measured Percent Effect.
result: -97.96

query: Consider the compound CCN(Cc1ccc(S(C)(=O)=O)cc1)Cc1nc(COC)no1 . State its measured Percent Effect.
result: -129.1

----------
# Test system: Plasmodium falciparum
# Method Summary: Calibr Malaria Delayed Death Assay SOP
# Type: functional, organism-based
# Parameters: scale not given: in the data most compounds retested in dose-response had high values
# Experimental Context: concentration 4.99e-06 (unit not given; other assays of the set use mol/L)
Hit rate of the full screen: of about 38,000 compounds, about 1,200 (3.2%) showed an effect of 50% or more. The median lay at about -58%. The full list was thinned out, with strong results kept by preference.
// values below are reported Percent Effect
Report as a plain number; the unit % is understood.

>  <Compound>
CS(=O)(=O)CCCNC1(c2ccc(Br)cc2)CCC1

>  <Percent Effect / %>
77.64

$$$$
>  <Compound>
CN(C)C(=O)CN1CCOCC2(C1)CN(c1ncc(F)cn1)CCO2.O=C(O)C(F)(F)F (stereo unspecified)

>  <Percent Effect / %>
-15.1

$$$$
>  <Compound>
COc1cccc(C(=O)N2CCCC2c2ncc3c(n2)CCN(C)C3)c1 (stereo unspecified)

>  <Percent Effect / %>
-46.26

$$$$

query: Consider the compound O=C(CCNS(=O)(=O)c1ccc(F)cc1)NCc1ccoc1 . State its measured Percent Effect.
result: -96.77

query: Consider the compound CCc1cnc(N)nc1NC(C)c1cnn(C)c1 (stereo unspecified) . State its measured Percent Effect.
result: -61.87

query: Consider the compound CC(=O)N1CCN(C(=O)Nc2ccc(Cl)cc2)[C@H]2CS(=O)(=O)C[C@H]21 . State its measured Percent Effect.
result: -18.79

----------
# System: Plasmodium falciparum
# Method Summary: Calibr Malaria Delayed Death Assay SOP
# Assay type: functional, organism-based
# Design: scale not given: in the data most compounds retested in dose-response had high values
# Experimental Context: concentration 4.99e-06 (unit not given; other assays of the set use mol/L)
Screen size: about 38,000 compounds; about 1,200 (3.2%) showed an effect of 50% or more. The median lay at about -58%. Only a selection was taken, and strong results are over-represented in it overall.
# if measured Percent Effect < -20%: rule met  # else: rule not met

Take a look at these entries with their results.
>  <Molecule>
O=C(N1CCCC(n2cncn2)C1)C1(c2ccc(Cl)cc2)CCC1 (stereo not drawn)

>  <Answer Label>
rule met

$$$$
>  <Molecule>
O=C(CC1NC(N2CCc3ccccc32)=NC1=O)Nc1ccccc1 (stereo not drawn)

>  <Answer Label>
rule met

$$$$
>  <Molecule>
O=C(CCN1CCc2[nH]nc(C(F)(F)F)c2C1)Nc1ccccc1

>  <Answer Label>
rule not met

$$$$
>  <Molecule>
CCOCCN1CCN(C(C)C(=O)Nc2ccnn2C(C)C)CC1 (stereo not drawn)

>  <Answer Label>
rule met

$$$$

# ---- query molecule ----
query: I wonder whether O=S(=O)(CCNCc1cccc2c1OCCO2)N1CCOCC1 has Percent Effect below -20%. Can you tell?
result: rule not met

----------
// values below are reported Percent Effect
# System: Plasmodium falciparum
# Method Summary: Calibr Malaria Delayed Death Assay SOP
# Assay type: functional, organism-based
# Design: scale not given: in the data most compounds retested in dose-response had high values
# Experimental Context: concentration 4.99e-06 (unit not given; other assays of the set use mol/L)
The campaign covered roughly 38,000 compounds. About 1,200 (3.2%) showed an effect of 50% or more. The median lay at about -58%. Only a selection was taken, and strong results are over-represented in it overall.
Report as a plain number; the unit % is understood.

>  <Compound>
COc1ccc(CN2CCOCC3(CCN(C4CCOCC4)C3)C2)cc1.O=C(O)C(F)(F)F.O=C(O)C(F)(F)F (stereo not drawn)

>  <Experimental Endpoint>
Percent Effect

>  <Units>
%

>  <Value Observed>
59.83

$$$$
>  <Compound>
COc1ccc(Nc2c[nH]c(=O)[nH]c2=O)cc1

>  <Experimental Endpoint>
Percent Effect

>  <Units>
%

>  <Value Observed>
-70.96

$$$$
>  <Compound>
CN1CCN(C)C2(CCN(Cc3ccc(C4CCCCO4)o3)CC2)C1 (stereo not drawn)

>  <Experimental Endpoint>
Percent Effect

>  <Units>
%

>  <Value Observed>
-149.2

$$$$

query: Consider the compound Cc1cccc(CN2CCOCC3(CCN(C4CCOCC4)C3)C2)c1.O=C(O)C(F)(F)F.O=C(O)C(F)(F)F (stereo not drawn) . State its measured Percent Effect.
result: 78

query: Consider the compound COc1ccc(S(=O)(=O)NCC(c2cccn2C)N(C)C)cc1F (stereo not drawn) . State its measured Percent Effect.
result: -0.0752

query: Consider the compound CCc1cc(N2CCC(NCCc3nc(C)c(C)s3)CC2)nc(C)n1 . State its measured Percent Effect.
result: 38.37

query: Consider the compound O=C(NCC(=O)N1CCCCC1)c1sccc1C1CC1 . State its measured Percent Effect.
result: -52.19

query: Consider the compound COC(=O)c1ccc(CNC(C)(C)c2ccccc2OC)o1 . State its measured Percent Effect.
result: -1.138

query: Consider the compound O=C(N1CCOCC1)[C@@]12CCO[C@@H]1CCN(Cc1cccc(F)c1)C2.O=C(O)C(F)(F)F . State its measured Percent Effect.
result: -31.47

query: Consider the compound Cn1cc(CN2CCn3cc(Cn4cccn4)nc3C2)cn1.O=C(O)C(F)(F)F . State its measured Percent Effect.
result: -116.7

query: Consider the compound CCn1cc(S(=O)(=O)N2CCCC2c2ccc(C)o2)cn1 (stereo not drawn) . State its measured Percent Effect.
result: -154.6

query: Consider the compound O=C(C(CNCc1ccccc1O)c1ccccc1)N1CCOCC1 (stereo not drawn) . State its measured Percent Effect.
result: 14.02
